Listed next: entries and their corresponding hERG current change (%, negative = inhibition) at 10uM.
target-system: human ether-à-go-go-related gene (hERG) potassium channel (human);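 further: peak tail current of the secondary pulse compared with the same well before compound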
Sequence (Q12809 whole entry, looked up): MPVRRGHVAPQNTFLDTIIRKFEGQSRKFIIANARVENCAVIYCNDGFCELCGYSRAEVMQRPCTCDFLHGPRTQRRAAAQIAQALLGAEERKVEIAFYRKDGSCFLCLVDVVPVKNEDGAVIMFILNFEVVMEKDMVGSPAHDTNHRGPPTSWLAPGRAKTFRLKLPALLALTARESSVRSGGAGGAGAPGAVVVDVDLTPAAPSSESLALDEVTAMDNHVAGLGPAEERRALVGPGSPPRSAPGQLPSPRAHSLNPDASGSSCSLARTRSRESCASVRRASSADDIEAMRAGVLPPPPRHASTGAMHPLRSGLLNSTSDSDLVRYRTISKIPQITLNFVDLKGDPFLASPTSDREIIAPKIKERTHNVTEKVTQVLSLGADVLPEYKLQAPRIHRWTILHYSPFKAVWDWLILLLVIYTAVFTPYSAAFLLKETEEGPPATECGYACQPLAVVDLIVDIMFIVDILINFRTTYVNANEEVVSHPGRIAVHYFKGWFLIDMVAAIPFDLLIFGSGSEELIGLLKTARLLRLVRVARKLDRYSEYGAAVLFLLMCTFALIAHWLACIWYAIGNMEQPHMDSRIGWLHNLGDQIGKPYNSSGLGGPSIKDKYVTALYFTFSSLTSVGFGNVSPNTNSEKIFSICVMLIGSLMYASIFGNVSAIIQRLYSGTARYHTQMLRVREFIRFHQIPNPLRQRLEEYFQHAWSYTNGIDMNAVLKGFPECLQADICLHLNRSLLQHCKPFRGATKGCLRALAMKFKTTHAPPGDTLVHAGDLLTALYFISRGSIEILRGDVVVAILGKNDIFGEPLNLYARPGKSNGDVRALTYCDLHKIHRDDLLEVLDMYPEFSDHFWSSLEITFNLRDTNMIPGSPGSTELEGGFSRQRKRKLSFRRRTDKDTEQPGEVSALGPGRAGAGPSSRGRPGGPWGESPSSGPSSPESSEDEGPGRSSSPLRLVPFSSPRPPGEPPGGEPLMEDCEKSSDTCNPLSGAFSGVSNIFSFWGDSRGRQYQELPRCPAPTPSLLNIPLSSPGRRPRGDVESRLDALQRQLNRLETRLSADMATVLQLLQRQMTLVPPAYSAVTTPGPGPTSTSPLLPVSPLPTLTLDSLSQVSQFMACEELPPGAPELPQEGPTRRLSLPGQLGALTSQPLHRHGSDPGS
method: primary screen, population patch clamp on CHO cells stably expressing hERG; higher = less effect of the substance
Out of some 310,000 compounds screened, about 14,000 (4.5%) showed an effect of 50% or more. The effect is printed as a negative number. This is one part of a sample in which strong results are shown more often than they occur.
measured-attribute: hERG current change (%, negative = inhibition) at 10uM (%)

smi | measured-value
c1csc(CNc2nc3ccccc3n2CCN2CCOCC2)c1 | -28
CC(=O)Nc1nc2ccccc2n1CCN1CCOCC1 | 0.217
Cc1ccc(C(=O)N2CCc3ccccc32)cc1 | -7.42
Cn1ncc(Br)c1C(=O)N1CCCC1 | 19
O=C(c1ccc(F)c(F)c1)N1CCCc2ccccc21 | 0.0993
CCOc1ccc(CNc2nc3ccccc3n2CCN2CCOCC2)cc1.Cl | -64.2

Reference source for all entries: paper PMC4336329
